Data provenance is ChEMBL document CHEMBL1142186.

MIC values, listed per item
Tested on: Streptococcus pneumoniae
Assay: Antibacterial activity against moxifloxacin resistance selected Streptococcus pneumoniae 24 with GyrA S81Y, GyrB P413S and ParC S79F mutation after 10 antibiotic-free subcultures by macrodilution method
Type: functional

For orientation, consider the following solved cases.
COMPOUND: CC[C@H]1OC(=O)[C@H](C)[C@@H](O[C@H]2C[C@@](C)(OC)[C@@H](O)[C@H](C)O2)[C@H](C)[C@@H](O[C@@H]2O[C@H](C)C[C@H](N(C)C)[C@H]2O)[C@](C)(O)C[C@@H](C)CN(C)[C@H](C)[C@@H](O)[C@]1(C)O
MIC: > 128 µg/mL

COMPOUND: CCCC[C@H](CN(O)C=O)C(=O)N1CCC[C@H]1C(=O)Nc1ccc(F)c[n+]1[O-]
MIC: 0.125 µg/mL

COMPOUND: C=CC1=C(C(=O)O)N2C(=O)[C@@H](NC(=O)/C(=N\O)c3csc(N)n3)[C@H]2SC1
MIC: 2 µg/mL

COMPOUND: CO/N=C(\C(=O)N[C@@H]1C(=O)N2C(C(=O)O)=C(COC(N)=O)CS[C@H]12)c1ccco1
MIC: 2 µg/mL

COMPOUND: CO/N=C(\C(=O)N[C@@H]1C(=O)N2C(C(=O)O)=C(CSc3nc(=O)c(O)nn3C)CS[C@H]12)c1csc(N)n1
MIC: 1 µg/mL

Problem: # query: MIC of entry C[C@@H](O)[C@H]1C(=O)N2C(C(=O)O)=C(SCCNC=N)C[C@H]12 [IMIPENEM ANHYDROUS]
Result: 0.5 µg/mL

Problem: # query: MIC of entry COc1c(N2CCNC(C)C2)c(F)cc2c(=O)c(C(=O)O)cn(C3CC3)c12 (stereo not drawn)
Result: 4 µg/mL

Problem: # query: MIC of entry `CC[C@H]1OC(=O)[C@H](C)[C@@H](O[C@H]2C[C@@](C)(OC)[C@@H](O)[C@H](C)O2)[C@H](C)[C@@H](O[C@@H]2O[C@H](C)C[C@H](N(C)C)[C@H]2O)[C@](C)(OC)C[C@@H](C)C(=O)[C@H](C)[C@@H](O)[C@]1(C)O`
Result: > 128 µg/mL

====

log10 of MIC values, listed per item
System: Streptococcus pneumoniae
Assay: Antibacterial activity against moxifloxacin resistance selected Streptococcus pneumoniae 3665 with GyrA S81Y mutation after 10 antibiotic-free subcultures by macrodilution method
Format: functional
Heads up: the numbers are on a log10 scale; they represent MIC in µg/mL.

COMPOUND: COc1c(N2CCNC(C)C2)c(F)cc2c(=O)c(C(=O)O)cn(C3CC3)c12 (stereo not drawn)
ASSAY ENDPOINT: log10 of MIC
ASSAY VALUE: -0.30

COMPOUND: C=CC1=C(C(=O)O)N2C(=O)[C@@H](NC(=O)/C(=N\O)c3csc(N)n3)[C@H]2SC1
ASSAY ENDPOINT: log10 of MIC
ASSAY VALUE: -0.90

COMPOUND: CO/N=C(\C(=O)N[C@@H]1C(=O)N2C(C(=O)O)=C(COC(N)=O)CS[C@H]12)c1ccco1
ASSAY ENDPOINT: log10 of MIC
ASSAY VALUE: -0.30

COMPOUND: CCCC[C@H](CN(O)C=O)C(=O)N1CCC[C@H]1C(=O)Nc1ccc(F)c[n+]1[O-]
ASSAY ENDPOINT: log10 of MIC
ASSAY VALUE: -0.30

COMPOUND: CC[C@H]1OC(=O)[C@H](C)[C@@H](O[C@H]2C[C@@](C)(OC)[C@@H](O)[C@H](C)O2)[C@H](C)[C@@H](O[C@@H]2O[C@H](C)C[C@H](N(C)C)[C@H]2O)[C@](C)(O)C[C@@H](C)CN(C)[C@H](C)[C@@H](O)[C@]1(C)O
ASSAY ENDPOINT: log10 of MIC
ASSAY VALUE: 0.90

Problem: # query: log10 of MIC of entry C[C@@H](O)[C@H]1C(=O)N2C(C(=O)O)=C(SCCNC=N)C[C@H]12 [IMIPENEM ANHYDROUS]
Result: -1.52

Problem: # query: log10 of MIC of entry `CC[C@H]1OC(=O)[C@H](C)[C@@H](O[C@H]2C[C@@](C)(OC)[C@@H](O)[C@H](C)O2)[C@H](C)[C@@H](O[C@@H]2O[C@H](C)C[C@H](N(C)C)[C@H]2O)[C@](C)(OC)C[C@@H](C)C(=O)[C@H](C)[C@@H](O)[C@]1(C)O`
Result: 0.30

Problem: # query: log10 of MIC of entry `CO/N=C(\C(=O)N[C@@H]1C(=O)N2C(C(=O)O)=C(CSc3nc(=O)c(O)nn3C)CS[C@H]12)c1csc(N)n1`
Result: -1.22

====

Test system: Streptococcus pneumoniae
Assay: Antibacterial activity against Streptococcus pneumoniae assessed as period of suppression of bacterial growth
Type: functional
ASSAY ENDPOINT: Post Antibiotic Effe (h)
Give the value, in units of h, as a plain number.

MOLECULE: CC[C@H]1OC(=O)[C@H](C)[C@@H](O[C@H]2C[C@@](C)(OC)[C@@H](O)[C@H](C)O2)[C@H](C)[C@@H](O[C@@H]2O[C@H](C)C[C@H](N(C)C)[C@H]2O)[C@](C)(O)C[C@@H](C)CN(C)[C@H](C)[C@@H](O)[C@]1(C)O
Post Antibiotic Effe / h: 3.1

MOLECULE: C[C@@H](O)[C@H]1C(=O)N2C(C(=O)O)=C(SCCNC=N)C[C@H]12 [IMIPENEM ANHYDROUS]
Post Antibiotic Effe / h: 1.7

MOLECULE: CO/N=C(\C(=O)N[C@@H]1C(=O)N2C(C(=O)O)=C(COC(N)=O)CS[C@H]12)c1ccco1
Post Antibiotic Effe / h: 1.5

MOLECULE: C[C@H]1COc2c(N3CCN(C)CC3)c(F)cc3c(=O)c(C(=O)O)cn1c23.C[C@H]1COc2c(N3CCN(C)CC3)c(F)cc3c(=O)c(C(=O)O)cn1c23.O
Post Antibiotic Effe / h: 1.3

Attention now turns to another entry.
Problem: # query: Post Antibiotic Effe of entry `CC[C@H]1OC(=O)[C@H](C)[C@@H](O[C@H]2C[C@@](C)(OC)[C@@H](O)[C@H](C)O2)[C@H](C)[C@@H](O[C@@H]2O[C@H](C)C[C@H](N(C)C)[C@H]2O)[C@](C)(OC)C[C@@H](C)C(=O)[C@H](C)[C@@H](O)[C@]1(C)O`
Result: 3.8

====

Tested on: Streptococcus pneumoniae
Experiment: Antibacterial activity against Streptococcus pneumoniae assessed as period of suppression of bacterial growth
Assay type: functional
Post Antibiotic Effe values, listed per item
Give the value, in units of h, as a plain number.

For orientation, consider the following solved cases.
COMPOUND: COc1c(N2C[C@@H]3CCCN[C@@H]3C2)c(F)cc2c(=O)c(C(=O)O)cn(C3CC3)c12
Post Antibiotic Effe / h: 1.5

COMPOUND: COc1c(N2CCNC(C)C2)c(F)cc2c(=O)c(C(=O)O)cn(C3CC3)c12 (stereo not given)
Post Antibiotic Effe / h: 1.7

COMPOUND: CCCC[C@H](CN(O)C=O)C(=O)N1CCC[C@H]1C(=O)Nc1ccc(F)c[n+]1[O-]
Post Antibiotic Effe / h: 1

COMPOUND: C=CC1=C(C(=O)O)N2C(=O)[C@@H](NC(=O)/C(=N\O)c3csc(N)n3)[C@H]2SC1
Post Antibiotic Effe / h: 1.6

Attention now turns to another entry.
Problem: # query: Post Antibiotic Effe of entry `CO/N=C(\C(=O)N[C@@H]1C(=O)N2C(C(=O)O)=C(CSc3nc(=O)c(O)nn3C)CS[C@H]12)c1csc(N)n1`
Result: 1.3

====

Tested on: Streptococcus pneumoniae
Test: Antibacterial activity against gatifloxacin resistance selected Streptococcus pneumoniae 1076 with ParC S79Y mutation after 10 antibiotic-free subcultures by macrodilution method
Format: functional
ASSAY ENDPOINT: MIC (µg/mL)
Give the value, in units of µg/mL, as a plain number.

MOLECULE: C[C@@H](O)[C@H]1C(=O)N2C(C(=O)O)=C(SCCNC=N)C[C@H]12 [IMIPENEM ANHYDROUS]
UNIT ANNOTATION: µg/mL
MIC: 0.008

MOLECULE: CO/N=C(\C(=O)N[C@@H]1C(=O)N2C(C(=O)O)=C(CSc3nc(=O)c(O)nn3C)CS[C@H]12)c1csc(N)n1
UNIT ANNOTATION: µg/mL
MIC: 0.016

MOLECULE: COc1c(N2CCNC(C)C2)c(F)cc2c(=O)c(C(=O)O)cn(C3CC3)c12 (stereo not drawn)
UNIT ANNOTATION: µg/mL
MIC: 8

MOLECULE: CCCC[C@H](CN(O)C=O)C(=O)N1CCC[C@H]1C(=O)Nc1ccc(F)c[n+]1[O-]
UNIT ANNOTATION: µg/mL
MIC: 0.25

MOLECULE: C=CC1=C(C(=O)O)N2C(=O)[C@@H](NC(=O)/C(=N\O)c3csc(N)n3)[C@H]2SC1
UNIT ANNOTATION: µg/mL
MIC: 0.125

Problem: # query: MIC of entry `CO/N=C(\C(=O)N[C@@H]1C(=O)N2C(C(=O)O)=C(COC(N)=O)CS[C@H]12)c1ccco1`
Result: 0.125
